I'd be grateful if you could share measured log10 of IC50 for these entries.
assayed.target: human ETA receptors (Homo sapiens, UniProt P25101)
Construct: endogenous in cells; host or cells: TE 671 cells (ATCC HTB 139)
Sequence (P25101 21-427): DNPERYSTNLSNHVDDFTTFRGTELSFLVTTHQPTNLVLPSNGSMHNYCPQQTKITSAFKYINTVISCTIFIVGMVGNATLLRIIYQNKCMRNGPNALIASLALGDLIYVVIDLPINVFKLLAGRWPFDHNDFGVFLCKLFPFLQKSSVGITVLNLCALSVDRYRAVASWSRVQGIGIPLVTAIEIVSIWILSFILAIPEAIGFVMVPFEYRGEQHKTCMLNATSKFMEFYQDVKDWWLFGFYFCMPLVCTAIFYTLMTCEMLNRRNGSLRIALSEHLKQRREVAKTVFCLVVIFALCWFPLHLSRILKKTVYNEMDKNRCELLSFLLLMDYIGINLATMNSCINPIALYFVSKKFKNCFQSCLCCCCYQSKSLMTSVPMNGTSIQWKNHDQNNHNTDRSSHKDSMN
test.description: Binding Test #1: inhibition of 125I-ET-1 binding to ETA receptors (TE 671 cell membranes)
measurement.context: Table 1; † incubation at 24° C.; read-out: ETA
# log10 transformed; quantity=IC50; unit=nM

Asked: Dear colleague, please send me the reported log10 of IC50 for Cc1noc(NS(=O)(=O)c2ccsc2C/C=C/c2ccc3c(c2)OCO3)c1Br when you can.
Given back: 2.15

Asked: Give a short answer stating reported log10 of IC50 for Cc1noc(NS(=O)(=O)c2sccc2/C=C/c2ccc3c(c2)OCO3)c1Br .
Given back: 2.34

Asked: // fetch log10 of IC50 given entry CCCC#Cc1ccc(S(=O)(=O)Nc2onc(C)c2Br)s1
Given back: 4.46

Asked: Tell me log10 of IC50 reported for Cc1noc(NS(=O)(=O)c2ccc(-c3ccccc3)s2)c1Br
Given back: 4.56

Asked: Determine its reported log10 of IC50: CCc1ccc(-c2ccc(S(=O)(=O)Nc3onc(C)c3Cl)s2)s1
Given back: 4.08

Asked: Name the recorded log10 of IC50 of the molecule listed here: Cc1cc(C)c(NC(=O)c2sccc2S(=O)(=O)Nc2onc(C)c2Cl)c(C)c1CC#N
Given back: -0.22

Asked: Please list log10 of IC50 recorded for the molecule Cc1noc(NS(=O)(=O)c2ccc(-c3cccc([N+](=O)[O-])c3)s2)c1Br
Given back: 4.41

Asked: Look up and state reported log10 of IC50 for Cc1ccc(NC(=O)c2c(S(=O)(=O)Nc3onc(C)c3Cl)c3ccccc3n2C)cc1
Given back: 4.50

Asked: Input Cc1noc(NS(=O)(=O)c2ccc(-c3ccc(C(F)(F)F)cc3)s2)c1Br , output reported log10 of IC50.
Given back: 3.80

Asked: Provide log10 of IC50 value for the following molecule: Cc1noc(NS(=O)(=O)c2c(Cc3ccc4c(c3)OCO4)sc3ccccc23)c1Br
Given back: 0.87

Asked: Input Cc1cc(C)c(NC(=O)c2sccc2S(=O)(=O)Nc2onc(C)c2Cl)c(C)c1CC(=O)O , output reported log10 of IC50.
Given back: 0.18

Asked: Using known records, supply log10 of IC50 for COc1ccc(-c2ccc(S(=O)(=O)Nc3onc(C)c3Br)s2)cc1
Given back: 4.42

Asked: Name the recorded log10 of IC50 of the molecule listed here: Cc1noc(NS(=O)(=O)c2ccsc2C(=O)OCCc2ccc3c(c2)OCO3)c1Cl
Given back: 2.36

Asked: Please look at this molecule and report its log10 of IC50: CCCc1ccc(-c2csc(S(=O)(=O)Nc3onc(C)c3Br)c2)cc1
Given back: 2.98
